Where do the numbers come from? From patent US20210047372A1.

Biological target: T1, insulin (UniProt P01308 25-54; P01308 90-110, limits assumed)
T1 construct: Mature insulin has two chains (A and B) from one precursor; also called b-insulin
T1 sequence (P01308 25-54 limits assumed, form in doubt, chain 1 of 2): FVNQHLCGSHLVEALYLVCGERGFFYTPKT
T1 sequence (P01308 90-110 limits assumed, form in doubt, chain 2 of 2): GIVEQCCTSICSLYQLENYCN
Assay: SPR, Biacore T200; target immobilized on CM5, His6-tagged Y variant injected; 1:1 Langmuir
MEASURED_PROPERTY: pKd
Recall that pKd is obtained by taking minus log10 of the concentration measured in molar.

BINDER	ASSAY_VALUE
Y00299 (designed binder, From library Ylib002Naive.I) MGSSHHHHHHGSSLAEAKEAAIAELDSKGVGAYQIKFIQVAKTVEQVQILKQAILADLPA	8.19

Exam item: # lookup: pKd of Y00304 (designed binder, From library Ylib002Naive.I) MGSSHHHHHHGSSLAEAKEAAIAELDSKGVGAYQIKFIQVAHDVEEVQILKQAILADLPA
Marked response: 7.68

Exam item: Requested read-out: pKd. Entry: Y00358 (designed binder, From library Ylib002Naive.I) MGSSHHHHHHGSSLAEAKEAAIAELDSKGVGAAKIKWIQDAKSVETVQFLKQAILAELPA
Marked response: 8.00
